# TEST_SYSTEM: metabotropic glutamate receptor (mGluR5) (Homo sapiens)
# Sequence (P41594 21-1212): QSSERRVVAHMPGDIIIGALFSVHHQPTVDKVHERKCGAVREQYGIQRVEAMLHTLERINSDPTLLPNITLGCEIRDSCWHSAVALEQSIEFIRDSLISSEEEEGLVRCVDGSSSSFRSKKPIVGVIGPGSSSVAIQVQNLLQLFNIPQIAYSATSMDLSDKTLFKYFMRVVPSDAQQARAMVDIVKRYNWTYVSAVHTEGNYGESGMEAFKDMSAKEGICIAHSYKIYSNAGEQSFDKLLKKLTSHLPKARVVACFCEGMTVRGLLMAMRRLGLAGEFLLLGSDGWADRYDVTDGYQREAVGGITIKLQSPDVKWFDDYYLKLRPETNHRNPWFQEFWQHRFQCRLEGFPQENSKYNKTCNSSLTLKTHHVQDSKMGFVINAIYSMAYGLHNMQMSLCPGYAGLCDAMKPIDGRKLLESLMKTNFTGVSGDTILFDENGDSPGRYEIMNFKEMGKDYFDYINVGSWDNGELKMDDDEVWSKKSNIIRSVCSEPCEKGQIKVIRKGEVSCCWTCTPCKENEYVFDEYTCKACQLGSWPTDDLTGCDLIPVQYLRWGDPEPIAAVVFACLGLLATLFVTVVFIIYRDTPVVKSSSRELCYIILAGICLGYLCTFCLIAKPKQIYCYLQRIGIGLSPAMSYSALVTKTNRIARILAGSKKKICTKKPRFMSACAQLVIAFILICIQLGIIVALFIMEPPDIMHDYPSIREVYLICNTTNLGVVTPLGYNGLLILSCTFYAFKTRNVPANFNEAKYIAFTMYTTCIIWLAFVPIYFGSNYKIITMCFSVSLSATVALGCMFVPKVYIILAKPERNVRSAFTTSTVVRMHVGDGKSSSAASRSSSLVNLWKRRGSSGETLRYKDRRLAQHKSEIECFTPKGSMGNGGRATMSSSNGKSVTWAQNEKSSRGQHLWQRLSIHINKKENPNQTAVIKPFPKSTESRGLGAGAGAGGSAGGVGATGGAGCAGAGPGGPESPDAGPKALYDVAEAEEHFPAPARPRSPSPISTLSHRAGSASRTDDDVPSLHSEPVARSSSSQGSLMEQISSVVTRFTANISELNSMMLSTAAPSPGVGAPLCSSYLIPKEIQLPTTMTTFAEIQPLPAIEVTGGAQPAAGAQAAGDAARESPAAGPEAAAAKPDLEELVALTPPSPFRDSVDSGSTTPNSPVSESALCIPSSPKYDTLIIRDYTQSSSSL
# PROTOCOL: Cytosolic Calcium studies with stably transfected cells (FLIPR, CHO-K1)
# TEST_PARAMETERS: CHO-K1 cells expressing human mGluR5; agonist L-quisqualic acid at ~80% of maximal signal; read-out: mGluR5_FLIPR_h_CHO_NAM IC50
MEASURE: pIC50
Note: pIC50 values are expressed as the negative base-10 logarithm of concentration in M.

Answered cases to consult:
COMPOUND: Cc1ccc2n1CCN(C(=O)c1cc3ncc(Cl)cn3n1)C2C (stereo not shown) [Example 5]
pIC50: 6.49
--
COMPOUND: CC1c2ccc(Cl)n2CCN1C(=O)c1cc2ncc(Cl)cn2n1 (stereo not shown) [Example 29]
pIC50: 7.04
--
COMPOUND: CC1c2ccc(Br)n2CCN1C(=O)c1cc2ncc(Cl)cn2n1 (stereo not shown) [Example 37]
pIC50: 7.47
--
COMPOUND: CC1c2ccc(Br)n2CCN1C(=O)c1cc2ncc(Br)cn2n1 (stereo not shown) [Example 39]
pIC50: 7.13
--
COMPOUND: CN1c2ccccc2CCN1C(=O)c1cc2ncc(Br)cn2n1 [Example 182]
pIC50: 6.72
--
COMPOUND: Cc1ccc2n1CCN(C(=O)c1cc3ncc(Br)cn3n1)C2C (stereo not shown) [Example 7]
pIC50: 6.65
--
COMPOUND: CN1c2ccccc2CCN1C(=O)c1cc2ncc(Cl)cn2n1 [Example 181]
pIC50: 6.78
--
COMPOUND: CC1c2ccc(Cl)n2CCN1C(=O)c1cc2ncc(Br)cn2n1 (stereo not shown) [Example 31]
pIC50: 7.07
--
COMPOUND: C[C@@H]1c2ccc(Cl)n2CCN1C(=O)c1cc2ncc(Br)cn2n1
pIC50: 7.61

Q) Name the reported pIC50 value associated with the compound Cc1ccc2n1CCN(C(=O)c1cc3ncc(Br)cn3n1)[C@@H]2C
A) 6.93

###

Readings of IC50 for the listed compounds
# TEST_SYSTEM: mGluR5 receptors (Rattus norvegicus)
# Construct: Primary astrocyte cultures are prepared from cortices of newborn rats; endogenous in cells; host or cells: primary cortical astrocytes of Sprague-Dawley rat pups (2-4 d old)
# Sequence (P31424 21-1203): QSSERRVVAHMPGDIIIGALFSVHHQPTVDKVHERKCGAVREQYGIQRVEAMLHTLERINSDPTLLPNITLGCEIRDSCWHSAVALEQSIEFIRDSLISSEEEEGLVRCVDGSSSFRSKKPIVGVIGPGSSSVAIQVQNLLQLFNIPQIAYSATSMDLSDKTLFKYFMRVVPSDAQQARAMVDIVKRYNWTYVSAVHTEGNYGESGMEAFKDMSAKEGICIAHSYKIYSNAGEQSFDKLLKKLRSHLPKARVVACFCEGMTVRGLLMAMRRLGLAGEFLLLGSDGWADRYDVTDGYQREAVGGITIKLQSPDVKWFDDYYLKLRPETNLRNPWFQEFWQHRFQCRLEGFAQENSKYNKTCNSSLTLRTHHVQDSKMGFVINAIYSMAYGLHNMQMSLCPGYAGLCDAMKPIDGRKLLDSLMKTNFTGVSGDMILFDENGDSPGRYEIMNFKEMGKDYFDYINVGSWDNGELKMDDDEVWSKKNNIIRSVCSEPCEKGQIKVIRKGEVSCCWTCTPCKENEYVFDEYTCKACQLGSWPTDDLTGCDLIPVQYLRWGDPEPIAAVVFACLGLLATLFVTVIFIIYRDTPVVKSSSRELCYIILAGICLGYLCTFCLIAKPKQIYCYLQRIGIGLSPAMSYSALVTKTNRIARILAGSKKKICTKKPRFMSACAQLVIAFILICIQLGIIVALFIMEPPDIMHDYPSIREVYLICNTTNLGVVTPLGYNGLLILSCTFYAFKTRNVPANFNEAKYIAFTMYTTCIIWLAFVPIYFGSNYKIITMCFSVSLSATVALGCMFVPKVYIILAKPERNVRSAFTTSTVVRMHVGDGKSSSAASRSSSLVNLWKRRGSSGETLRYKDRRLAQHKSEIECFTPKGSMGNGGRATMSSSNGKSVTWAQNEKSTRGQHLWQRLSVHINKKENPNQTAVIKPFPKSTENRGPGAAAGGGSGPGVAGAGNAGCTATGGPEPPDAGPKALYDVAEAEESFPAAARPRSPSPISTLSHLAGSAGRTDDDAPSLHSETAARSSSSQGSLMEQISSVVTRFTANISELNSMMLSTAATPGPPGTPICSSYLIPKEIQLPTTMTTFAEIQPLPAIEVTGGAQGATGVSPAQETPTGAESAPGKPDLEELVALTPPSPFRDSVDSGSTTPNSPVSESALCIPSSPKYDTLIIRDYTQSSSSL
# PROTOCOL: Cytosolic Calcium studies with astrocytes (astrocyte culture test, FLIPR)
# Type: cell-based
# TEST_PARAMETERS: primary rat cortical astrocytes; L-quisqualate 100 nM; read-out: mGluR5_FLIPRr_rpA IC50
I only need the number, in nM, no unit after it.

COMPOUND: Cc1ccc2n1CCN(C(=O)c1cc3ncc(Cl)cn3n1)C2C (stereo not shown)
MEASURE: IC50
READOUT_NUMBER: 87.3
--
COMPOUND: CC1c2ccc(Cl)n2CCN1C(=O)c1cc2ncc(Br)cn2n1 (stereo not shown)
MEASURE: IC50
READOUT_NUMBER: 22.5
--
COMPOUND: C[C@@H]1c2ccc(Cl)n2CCN1C(=O)c1cc2ncc(Br)cn2n1
MEASURE: IC50
READOUT_NUMBER: 7.8
--
COMPOUND: Cc1ccc2n1CCN(C(=O)c1cc3ncc(Br)cn3n1)[C@@H]2C
MEASURE: IC50
READOUT_NUMBER: 34.3
--
COMPOUND: CC1c2ccc(Br)n2CCN1C(=O)c1cc2ncc(Br)cn2n1 (stereo not shown)
MEASURE: IC50
READOUT_NUMBER: 15
--
COMPOUND: CC1c2ccc(Br)n2CCN1C(=O)c1cc2ncc(Cl)cn2n1 (stereo not shown)
MEASURE: IC50
READOUT_NUMBER: 17

Q) Tell me the measured IC50 of CN1c2ccccc2CCN1C(=O)c1cc2ncc(Cl)cn2n1 , please.
A) 82.3

Q) Bench note: what IC50 did CN1c2ccccc2CCN1C(=O)c1cc2ncc(Br)cn2n1 show?
A) 63.7

Q) What does the data say about its IC50? Entry: Cc1ccc2n1CCN(C(=O)c1cc3ncc(Br)cn3n1)C2C (stereo not shown)
A) 50

Q) # IC50 lookup, item CC1c2ccc(Cl)n2CCN1C(=O)c1cc2ncc(Cl)cn2n1 (stereo not shown)
A) 21.9

Reference source: patent US20110003820A1
